target: T1, Recombinant Human DLL4 (delta-like protein 4) (human, UniProt Q9NR61 27-524); experiment: ECL (MSD) multispot binding assay, antigen spotted on plate, Fab in solution;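 further: purified Fab incubated 1 h at 20 °C, detected via TAG-labelled antibody electrochemiluminescence, antigen spot compared with the blank in the same well, ratio at least 4 counted as hit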
T1 construct: Bought recombinant human DLL4 (R&D Systems Cat#1506-D4/CF); also called rHuman DLL4
Listing: ECL signal of selected binders
When you answer, write just the number.

// worked examples, ECL signal included
Problem: State, in one line, measured ECL signal of Fab VH1-46_IGHD6-6*01_IGHJ1*01 S102A/S103P/S104F/H111F (APFF) & L6_IGKJ1*01 S30R (Fab, V domains shown, Fab made in E. coli; The constant parts (CH1 with His6 and Flag tags from plasmid A, kappa CL from plasmid C) are not added here; also called APFF & S30R) VH: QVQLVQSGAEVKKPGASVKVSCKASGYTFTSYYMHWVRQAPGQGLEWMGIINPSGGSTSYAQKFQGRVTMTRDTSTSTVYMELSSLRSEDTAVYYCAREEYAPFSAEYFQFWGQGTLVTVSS VL: EIVLTQSPATLSLSPGERATLSCRASQSVRSYLAWYQQKPGQAPRLLIYDASNRATGIPARFSGSGSGTDFTLTISSLEPEDFAVYYCQQRSNWPPWTFGQGTKVEIKR
Result: 189000

Problem: State its ECL signal: Fab VH1-46_IGHD6-6*01_IGHJ1*01 S102A/S103P/S104F/H111F (APFF) & L6_IGKJ1*01 S31T (Fab, V domains shown, Fab made in E. coli; The constant parts (CH1 with His6 and Flag tags from plasmid A, kappa CL from plasmid C) are not added here; also called APFF & S31T) VH: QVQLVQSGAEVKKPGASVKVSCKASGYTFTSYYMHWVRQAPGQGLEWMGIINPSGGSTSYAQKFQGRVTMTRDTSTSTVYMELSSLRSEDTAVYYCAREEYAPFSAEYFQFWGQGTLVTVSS VL: EIVLTQSPATLSLSPGERATLSCRASQSVSTYLAWYQQKPGQAPRLLIYDASNRATGIPARFSGSGSGTDFTLTISSLEPEDFAVYYCQQRSNWPPWTFGQGTKVEIKR
Result: 191000

Problem: Note ECL signal for the binder shown: Fab VH1-46_IGHD6-6*01_IGHJ1*01 S102A/S103P/S104F/H111F (APFF) & L6_IGKJ1*01 S31Y (Fab, V domains shown, Fab made in E. coli; The constant parts (CH1 with His6 and Flag tags from plasmid A, kappa CL from plasmid C) are not added here; also called APFF & S31Y) VH: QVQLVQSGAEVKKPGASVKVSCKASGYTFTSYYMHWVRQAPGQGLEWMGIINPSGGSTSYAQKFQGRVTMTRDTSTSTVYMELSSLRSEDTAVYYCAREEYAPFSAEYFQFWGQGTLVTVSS VL: EIVLTQSPATLSLSPGERATLSCRASQSVSYYLAWYQQKPGQAPRLLIYDASNRATGIPARFSGSGSGTDFTLTISSLEPEDFAVYYCQQRSNWPPWTFGQGTKVEIKR
Result: 188000

Problem: In one line, give reported ECL signal of the entry Fab VH1-46_IGHD6-6*01_IGHJ1*01 S102A/S103P/S104F/H111F (APFF) & L6_IGKJ1*01 S31E (Fab, V domains shown, Fab made in E. coli; The constant parts (CH1 with His6 and Flag tags from plasmid A, kappa CL from plasmid C) are not added here; also called APFF & S31E) VH: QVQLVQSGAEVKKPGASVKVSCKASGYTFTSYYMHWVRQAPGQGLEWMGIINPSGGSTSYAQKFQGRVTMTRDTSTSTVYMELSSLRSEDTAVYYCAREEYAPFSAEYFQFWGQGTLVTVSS VL: EIVLTQSPATLSLSPGERATLSCRASQSVSEYLAWYQQKPGQAPRLLIYDASNRATGIPARFSGSGSGTDFTLTISSLEPEDFAVYYCQQRSNWPPWTFGQGTKVEIKR .
Result: 171000

Now, please, on to the next binder.
Problem: Answer with the recorded ECL signal for the binder listed here: Fab VH1-46_IGHD6-6*01_IGHJ1*01 S102A/S103P/S104F/H111F (APFF) & L6_IGKJ1*01 S31R (Fab, V domains shown, Fab made in E. coli; The constant parts (CH1 with His6 and Flag tags from plasmid A, kappa CL from plasmid C) are not added here; also called APFF & S31R) VH: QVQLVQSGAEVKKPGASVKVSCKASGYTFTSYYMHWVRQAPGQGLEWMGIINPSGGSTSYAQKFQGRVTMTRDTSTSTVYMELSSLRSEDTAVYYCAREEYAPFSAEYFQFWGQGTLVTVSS VL: EIVLTQSPATLSLSPGERATLSCRASQSVSRYLAWYQQKPGQAPRLLIYDASNRATGIPARFSGSGSGTDFTLTISSLEPEDFAVYYCQQRSNWPPWTFGQGTKVEIKR
Result: 166000

// provenance: patent US20120316071A1
